Just for reference, PubChem BioAssay (NCI) is where these values come from.

- Test system: CCRF-CEM leukemia
- assay.remarks: NCI tumour cell line growth inhibition, 48 h; in the data active = GI50 below about 0.43 µM; inactive = the rest
Return exactly one item of 1 for active, -1 for inactive

Per the records of this test, what outcome belongs to CC[C@]12C=CCN3CC[C@@]4(c5ccc(OC)cc5N(C)[C@H]4[C@@](O)(C(=O)OC)[C@@H]1OC(=O)CCC(=O)N[C@H](Cc1c[nH]c4ccccc14)C(=O)OC)[C@@H]32 ? -1

How did this test come out for CCOC(=O)c1csc(NC(=O)COc2cccc(/C=C3\CSc4ccccc4C3=O)c2)n1 ? -1

Called result for O=c1c(-c2ccc(O)cc2)coc2cc(OC3OC(CO)C(O)C(O)C3O)cc(O)c12 (stereo not drawn) -1

Fill in: this test's call for O=C(O)Cn1c2c(c3c(O)cccc31)C(=O)c1ccccc1-2 is ___ -1

Recorded test outcome, item COc1ccc(/C=C\c2cc(OC)c(OC)c(OC)c2)c(O)c1O 1

Recorded test outcome, item O=C(NNC(=S)Nc1ccccc1)c1ccccn1 -1

Identify the outcome logged in this assay for the compound shown: CC[C@@H](C)Nc1cc(C(=O)NC2CC3CCC(C2)N3c2ccc(C(=O)C3CC3)cn2)c(C)cc1C(N)=O (stereo partly drawn) 1

In this assay, the call recorded for COc1ccc(/C=C2\CC(C)CC3C2=NN(c2ccccc2)C3c2ccc(OC)c(OC)c2)cc1OC (stereo not drawn) was what? -1

* * *

Can you tell me TGI for the items I'm about to list?
- System: SN12C renal
- assay.remarks: NCI tumour cell line growth inhibition, 48 h

Quick one: TGI for CC1=NN(C(=O)c2ccc(Cl)cc2)C(=O)/C1=C/c1ccco1 ? > 100 µM

What value of TGI has been reported for the following molecule? COC(=O)c1cc(C)n(CN(Cc2ccccc2)Cn2nc(C(=O)OC)cc2C)n1 > 100 µM

Report TGI for Cc1nnc(-c2ccc(C)c(-c3ccc(C(=O)NCc4ccc(Cl)cc4)cc3)c2)o1 please. > 25 µM

Return reported TGI; argument: Cc1ccc(/C=C(\C#N)c2ccccc2)cc1 > 100 µM

I have this molecule here, O=C(Nc1nc(C23CC4CC(CC(C4)C2)C3)cs1)c1cc2c(ccc3ccccc32)oc1=O , and I need its recorded TGI. > 100 µM

Field request: TGI | item: O=C(Nc1cccc(Cl)c1)c1cc(N=Nc2ccc([N+](=O)[O-])cc2Cl)ccc1O 8.87 µM

Look up TGI for this molecule: Cc1ccc(C)n1-n1c(-c2ccccc2)n[nH]c1=O > 100 µM

For the molecule shown here, CCCN1C(=O)/C(=C/c2ccc(O)cc2)SC1=Nc1ccc(OC)cc1 , give the reported TGI. 34.5 µM

Value lookup for TGI; key = CC[C@]12C=CCN3CC[C@@]4(c5ccc(OC)cc5N(C)[C@H]4[C@@](O)(C(=O)OC)[C@@H]1OC(=O)CCC(=O)N[C@H](Cc1c[nH]c4ccccc14)C(=O)OC)[C@@H]32 23.9 µM

Report TGI for O=C1C2ON3c4ccccc4C(=O)C3(c3ccccc3)C2C(=O)N1c1ccccc1 (stereo not given) please. > 100 µM

Find the recorded TGI belonging to CCOC(=O)N1[C@@H]2CCC[C@@H]2C(=O)[C@@H]2CCC[C@@H]21 and report it. > 100 µM

Give the measured TGI of O=S(=O)(OI(O)CC(F)(F)F)C(F)(F)F . > 100 µM

What value of TGI has been reported for the following molecule? C=C1CC(CN2CCC(=O)NC2=O)(c2ccccc2)OC1=O (stereo not given) 33.4 µM

Quick check: TGI of O=C1C(=O)N(c2cccc(C(F)(F)F)c2)C(=O)C(=O)C1c1nc2ccccc2s1 ? > 100 µM

Please report the recorded TGI for CC(O)CN1c2ccccc2Sc2ccc(Cl)cc21 (stereo not given) . > 10 µM

* * *

- System: SNB-78 CNS
- assay.remarks: NCI tumour cell line growth inhibition, 48 h
What TGI was measured for each of the following?

Item: CCCCCCCCCOC(=S)NCCCCC Test system: SNB-78 CNS Read-out: TGI Value: ? > 100 µM

Missing value: TGI, SNB-78 CNS, entry OC1CCC[C@@H]1Sc1ccccc1 (stereo partly specified) . Fill in? > 100 µM

What value of TGI on SNB-78 CNS does O=c1nc2sc3ccc4ccccc4c3n2[nH]c1=O have? > 100 µM

Return TGI measured with SNB-78 CNS given this compound: CSc1nc(NC2OC(COC(C)=O)C(OC(C)=O)C(OC(C)=O)C2OC(C)=O)c(N=C(C)C(C)=O)c(=O)n1C (stereo unspecified) > 100 µM

API: value(readout=TGI, system=SNB-78 CNS) for record Cc1ccc(/C=C(\C#N)c2ccccc2)cc1 > 100 µM

For the record CCO[C@@H]1OC(=O)[C@@](C)(C(C)=O)[C@@H]1C , what value of TGI is listed for SNB-78 CNS? 84.9 µM

* * *

Please respond with reported TGI for every item in the list.
- System: NCI/ADR-RES ovarian
- assay.remarks: NCI tumour cell line growth inhibition, 48 h

Given the compound CCCN1C(=O)/C(=C/c2ccc(O)cc2)SC1=Nc1ccc(OC)cc1 , what is its reported TGI? 29.5 µM

Recorded TGI of O=C(CCOS(=O)(=O)CF)N1CCN(C(=O)CCOS(=O)(=O)CF)CC1 , please. > 100 µM

Using the record for CC(=O)N=C1N(/C=C2\C(=O)Oc3ccccc3C2=O)C(=O)/C(=C/c2ccccc2Cl)N1C , report its TGI. > 100 µM

// returns reported TGI for input O=C1C(Cl)C(c2cc3cc(Br)ccc3nc2Cl)N1c1c(Cl)cccc1Cl (centres undefined) > 25 µM

* * *

Kindly supply the reported TGI values for the records listed here.
- Test system: MDA-MB-435
- assay.remarks: NCI tumour cell line growth inhibition, 48 h
Where a SMILES comes first, the peptide text is derived from it. [ ]: non-standard residue; d: D form. 2Nal = N[CH](Cc1ccc2ccccc2c1)C(=O)O

Identify the measured TGI of Cc1c(-c2ccccc2)c(C#N)c2nnn(-c3cccc(Cl)c3)c(=O)n12 for MDA-MB-435. > 100 µM

Can you look up TGI on MDA-MB-435 for CCN(CC)COC(=S)S ? > 100 µM

Report TGI for CCCCCCN(C)Cc1ccc(OCCOc2ccc(CN(C)CCCCCC)cc2)cc1 tested on MDA-MB-435. 2.5 µM

What TGI appears in the records for this compound with MDA-MB-435? COc1ccc(CNc2cnc3cc(N)cc(N)c3n2)cc1 39 µM

Please tell me: TGI of O=C1/C(=C/c2cccs2)NC(=S)N1CN1CCCC(CO)C1 (stereo not given) , system MDA-MB-435? > 100 µM

Kindly state the measured TGI obtained for CC(C)C(NC(=O)C(CCCCN)NC(=O)C(Cc1c[nH]c2ccccc12)NC(=O)C(Cc1ccc(O)cc1)NC(=O)C(CS)NC(=O)C(N)Cc1ccc2ccccc2c1)C(=O)NC(CS)C(=O)NC(C(N)=O)C(C)O (stereo not given) (H-[2Nal]CYWKVCT-NH2; configuration not given here) with MDA-MB-435. > 12.5 µM

Give MDA-MB-435 TGI for COc1ccc2nc3n(c2c1)C(c1c(Cl)cccc1Cl)SC3 (stereo not given) > 100 µM

Record O=C(CN(c1ccc(S(=O)(=O)O)cc1)c1ccc(S(=O)(=O)O)cc1)Nn1cnc2ccc(S(=O)(=O)N(c3ccc(S(=O)(=O)O)cc3)c3ccc(S(=O)(=O)O)cc3)cc2c1=O : what is its TGI with MDA-MB-435? > 100 µM

Missing value: TGI, MDA-MB-435, entry CC1OC(O[C@H]2CC[C@]3(C=O)[C@H]4CC[C@]5(C)[C@H](C6=CC(=O)OC6)CC[C@]5(O)[C@@H]4C=C[C@]3(O)C2)CC(O)C1O (stereo not given in full) . Fill in? 0.701 µM

Given the entry O=C(O)Cn1c2c(c3c(O)cccc31)C(=O)c1ccccc1-2 , what TGI was observed with MDA-MB-435? > 100 µM

* * *

- System: CAKI-1 renal
- assay.remarks: NCI tumour cell line growth inhibition, 48 h
Would you kindly list TGI for each of these compounds?

Request the reported TGI associated with O=C1CN(c2ccc(Cl)cc2)C(=O)CN1NCNN1CC(=O)N(c2ccc(Cl)cc2)CC1=O > 100 µM

Value lookup for TGI; key = CO[C@@H]1[C@H]2[C@@H](C)c3ccoc3C[C@@H]2[C@@]2(C)CC[C@H](OC(=O)c3ccccc3)[C@](C)(C(=O)O)[C@]2(O)[C@@H]1OC(=O)c1ccccc1 15.6 µM

Fill blank: measured TGI of the compound Nc1c(N2CCCCC2)c(=O)nc2[nH]/c(=C\c3ccccc3)c(=O)n12 is ____. > 100 µM

Could you share which TGI value was measured for O=C(Nc1ccc2c(c1)OCO2)C(=O)c1c[nH]c2cc(F)ccc12 ? > 100 µM

Please report the recorded TGI for COc1cc(/C=C\c2ccc(OC(C)=O)cc2)cc(OC)c1OC . > 100 µM

Endpoint output: TGI of O=C1C(Cl)=C(N2CCN(c3ccccn3)CC2)C(=O)c2ncccc21 . Value? 4.01 µM

For the compound COC(=O)C1=C(O)[C@H](C(=O)OC)[C@]2(O)[C@@H](C(=O)OC)[C@H]1C[C@@H](c1ccc(OC(=O)/C=C/c3ccco3)cc1)[C@@H]2C(=O)OC , what TGI is on record? 86.8 µM

Entry NC(=Nc1nc(-c2ccccn2)cc2ccccc12)c1ccccn1 has what TGI? > 11.9 µM

// TGI lookup, key: Oc1ccc(-c2cn3cc(C(F)(F)F)ccc3n2)cc1 > 100 µM

Recorded TGI of CC(=O)ON(C(C)=O)C1C(COC(c2ccccc2)(c2ccccc2)c2ccccc2)OC2OC3(CCCC3)OC21 (centres undefined) , please. > 100 µM

I am curious: what TGI value has been reported for C[N+](C)([O-])Cc1cc(-c2ccccc2)ccc1O ? > 100 µM

# input compound: Nc1ccc2c(c1)Oc1c(F)c(F)cc3c(=O)c(C(=O)O)cn-2c13 ; wanted: its TGI > 100 µM

# lookup: TGI of NC(N)=NC(N)=Nc1ccccc1 (tested in a mixture with another compound) > 100 µM

Requested field: TGI. Item: CC(=O)Nc1ccc2cc3[nH]c4cc(NC(C)=O)ccc4c3nc2c1 > 100 µM

Find the recorded TGI belonging to COc1cccc2cc(C(=O)Nc3ccccn3)c(=N)oc12 and report it. > 100 µM

Which measured TGI value corresponds to C[C@]12CC/C(=N\OCCN3CCCCC3)C=C1CCC1C2CC[C@@]2(C)C1CC[C@]2(C)O (some centres undefined) ? 23.7 µM

What does the record list as TGI for O=C(N/N=C(/COc1cccc(Cl)c1)N=Cc1cccnc1)c1ccncc1 ? > 100 µM

Give the measured TGI of O=C(CCOS(=O)(=O)CF)N1CCN(C(=O)CCOS(=O)(=O)CF)CC1 . > 100 µM

Query (compound): CCCCCCCCCc1c(O)c(O)c(CCCCCCCCC)c(CCCCCCCCC)c1CCCCCCCCC ; field requested: TGI > 100 µM
